system_under_test: UBE2E3
test_name: reporter assay of Huesken 2005; also: test concentration or dose not given here
condition_description: siRNA
Oligonucleotides are written 5' to 3', each unit as a sugar letter and its base; * is a phosphorothioate linkage, no mark a phosphodiester; rarer units and linkages stand in square brackets, end groups in braces. Plain capitals give the bases only. d = 2'-deoxy (DNA); r = 2'-OH (RNA)
Recorded normalised inhibition (eCFP-eYFP dual reporter), one value per entry.
Return type: number; implicit unit %.

1) sense rArArGrGrArGrArUrArArCrArUrUrUrArUrGrAdTdT / antisense rUrCrArUrArArArUrGrUrUrArUrCrUrCrCrUrUdTdA    52
2) sense rUrArArArGrArCrArArCrUrGrGrArGrUrCrCrCdTdT / antisense rGrGrGrArCrUrCrCrArGrUrUrGrUrCrUrUrUrAdAdG    43.8
3) sense rArCrUrArUrUrUrCrArArArGrGrUrUrUrUrGrCdTdT / antisense rGrCrArArArArCrCrUrUrUrGrArArArUrArGrUdCdA    34.3

Consider sense rCrArCrUrCrArGrUrArUrUrUrGrArCrCrArArCdTdT / antisense rGrUrUrGrGrUrCrArArArUrArCrUrGrArGrUrGdGdC . Its measured normalised inhibition (eCFP-eYFP dual reporter) is 87.1

So, sense rCrGrArCrArGrGrArUrArGrCrCrArGrArCrArGdTdT / antisense rCrUrGrUrCrUrGrGrCrUrArUrCrCrUrGrUrCrGdTdG ? Its normalised inhibition (eCFP-eYFP dual reporter) was 78

Field normalised inhibition (eCFP-eYFP dual reporter) (entry sense rGrCrCrArCrUrCrArGrUrArUrUrUrGrArCrCrAdTdT / antisense rUrGrGrUrCrArArArUrArCrUrGrArGrUrGrGrCdTdA ) reads 90.9

====

system_under_test: SOST
test_name: reporter assay of Huesken 2005
condition_description: siRNA
Oligonucleotides are given in HELM: sugar(base)linkage, 5' to 3'; d 2'-deoxyribose, r ribose, m 2'-O-methylribose, p phosphate. ss, as = sense and antisense strand
# key: entry, value: normalised inhibition (eCFP-eYFP dual reporter)
Just the number please, in %, no unit attached.

1. RNA1{r(C)p.r(U)p.r(C)p.r(A)p.r(A)p.r(G)p.r(G)p.r(A)p.r(C)p.r(U)p.r(U)p.r(C)p.r(G)p.r(G)p.r(G)p.r(A)p.r(C)p.r(C)p.r(G)p.d(T)p.d(T)}|RNA2{r(C)p.r(G)p.r(G)p.r(U)p.r(C)p.r(C)p.r(C)p.r(G)p.r(A)p.r(A)p.r(G)p.r(U)p.r(C)p.r(C)p.r(U)p.r(U)p.r(G)p.r(A)p.r(G)p.d(C)p.d(T)}$$$RNA1{StrandType:ss}|RNA2{StrandType:as}$    62.6
2. RNA1{r(G)p.r(U)p.r(G)p.r(G)p.r(A)p.r(G)p.r(G)p.r(G)p.r(C)p.r(C)p.r(A)p.r(G)p.r(G)p.r(G)p.r(G)p.r(U)p.r(G)p.r(G)p.r(C)p.d(T)p.d(T)}|RNA2{r(G)p.r(C)p.r(C)p.r(A)p.r(C)p.r(C)p.r(C)p.r(C)p.r(U)p.r(G)p.r(G)p.r(C)p.r(C)p.r(C)p.r(U)p.r(C)p.r(C)p.r(A)p.r(C)p.d(T)p.d(A)}$$$RNA1{StrandType:ss}|RNA2{StrandType:as}$    52.8

Attention now turns to another entry.
normalised inhibition (eCFP-eYFP dual reporter) measured on RNA1{r(C)p.r(C)p.r(G)p.r(U)p.r(G)p.r(U)p.r(A)p.r(G)p.r(U)p.r(G)p.r(G)p.r(A)p.r(G)p.r(G)p.r(G)p.r(C)p.r(C)p.r(A)p.r(G)p.d(T)p.d(T)}|RNA2{r(C)p.r(U)p.r(G)p.r(G)p.r(C)p.r(C)p.r(C)p.r(U)p.r(C)p.r(C)p.r(A)p.r(C)p.r(U)p.r(A)p.r(C)p.r(A)p.r(C)p.r(G)p.r(G)p.d(A)p.d(A)}$$$RNA1{StrandType:ss}|RNA2{StrandType:as}$ = 55.2
